Values compiled from paper PMC12198407.

- assay_explanation: Pharmacokinetics, intravenous
- Type: in vivo, SD rats
- condition_details: both sexes, SD, rat, plasma, iv, 1 mg/kg; read-out: T1/2
reported_property: half-life (min)
One number for each entry, in min.

[Q] // query half-life value for entry `CN(Cc1nc2c(N3CCOCC3)nc(-c3ccc(N)cc3)nc2n1C)c1ncc(C(=O)NO)cn1.CS(=O)(=O)O`
[A] 3.79

* * *

- assay_explanation: Metabolic stability in liver microsomes
- Type: in vitro ADME
- condition_details: CD-1, mouse, read-out: liver intrinsic clearance (CLint)
reported_property: CLint scaled at 1 µM

[Q] Look up CLint scaled at 1 µM for this molecule: `CN(Cc1nc2c(N3CCOCC3)nc(-c3ccc(N)cc3)nc2n1C)c1ncc(C(=O)NO)cn1.CS(=O)(=O)O`
[A] < 29.7 mL/min/kg

* * *

- tested_system: CYP2D6 (Homo sapiens)
- Sequence (P10635 whole entry): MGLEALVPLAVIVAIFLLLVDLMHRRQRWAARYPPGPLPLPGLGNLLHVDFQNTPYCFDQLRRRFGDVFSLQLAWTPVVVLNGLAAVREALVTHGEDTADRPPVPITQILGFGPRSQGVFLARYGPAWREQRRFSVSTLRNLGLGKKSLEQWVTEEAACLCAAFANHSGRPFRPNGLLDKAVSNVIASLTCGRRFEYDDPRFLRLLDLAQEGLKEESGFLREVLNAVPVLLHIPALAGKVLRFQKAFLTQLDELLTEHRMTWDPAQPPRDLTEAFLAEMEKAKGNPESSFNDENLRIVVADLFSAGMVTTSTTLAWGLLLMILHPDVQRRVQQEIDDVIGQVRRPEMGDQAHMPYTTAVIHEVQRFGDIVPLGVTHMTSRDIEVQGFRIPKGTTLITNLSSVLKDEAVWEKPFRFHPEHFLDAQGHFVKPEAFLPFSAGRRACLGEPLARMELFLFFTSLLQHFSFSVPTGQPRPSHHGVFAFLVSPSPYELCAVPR
pIC50: −log10 of the molar value.
reported_property: pIC50

[Q] For `CN(Cc1nc2c(N3CCOCC3)nc(-c3ccc(N)cc3)nc2n1C)c1ncc(C(=O)NO)cn1.CS(=O)(=O)O` , what is its reported pIC50?
[A] < 5.00

* * *

- tested_system: CYP2C9 (Homo sapiens, UniProt P11712)
- Construct: human liver microsomal cytochrome P450 isoenzymes; from tissue; host or cells: human liver microsomes
- Sequence (P11712 whole entry): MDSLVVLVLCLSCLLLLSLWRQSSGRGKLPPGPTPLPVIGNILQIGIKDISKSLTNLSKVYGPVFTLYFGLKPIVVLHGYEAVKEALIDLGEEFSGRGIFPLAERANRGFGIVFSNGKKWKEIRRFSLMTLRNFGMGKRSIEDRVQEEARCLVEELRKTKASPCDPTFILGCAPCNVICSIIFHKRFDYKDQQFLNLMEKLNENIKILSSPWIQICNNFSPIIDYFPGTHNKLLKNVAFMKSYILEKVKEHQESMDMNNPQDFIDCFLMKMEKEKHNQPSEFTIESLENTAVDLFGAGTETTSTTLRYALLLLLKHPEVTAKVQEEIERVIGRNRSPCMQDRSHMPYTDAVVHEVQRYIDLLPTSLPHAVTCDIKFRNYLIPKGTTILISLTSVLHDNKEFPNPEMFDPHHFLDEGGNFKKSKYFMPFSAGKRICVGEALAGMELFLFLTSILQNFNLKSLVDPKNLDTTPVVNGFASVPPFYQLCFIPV
- assay_explanation: CYP inhibition, human liver microsomes
- Type: in vitro ADME
reported_property: IC50

[Q] IC50 lookup needed for `CN(Cc1nc2c(N3CCOCC3)nc(-c3ccc(N)cc3)nc2n1C)c1ncc(C(=O)NO)cn1.CS(=O)(=O)O` , thanks.
[A] > 10 µM

* * *

- assay_explanation: Plasma protein binding, equilibrium dialysis
- Assay type: in vitro ADME
- condition_details: monkey, 2 µM, read-out: plasma protein binding rate (converted)
reported_property: fraction unbound at 2 µM
Give bare numbers.

[Q] Sample `CN(Cc1nc2c(N3CCOCC3)nc(-c3ccc(N)cc3)nc2n1C)c1ncc(C(=O)NO)cn1.CS(=O)(=O)O` — what was its fraction unbound at 2 µM?
[A] 0.205

* * *

- assay_explanation: Metabolic stability in liver microsomes
- Type: in vitro ADME
- condition_details: monkey, 1 µM, NADPH, 37°C
reported_property: half-life at 1 µM (min)
Numbers only, in min.

[Q] // query half-life at 1 µM value for entry CN(Cc1nc2c(N3CCOCC3)nc(-c3ccc(N)cc3)nc2n1C)c1ncc(C(=O)NO)cn1.CS(=O)(=O)O [PM]
[A] 3.1

* * *

- Test system: RPMI-8226
- assay_explanation: Cell viability CCK8
- Assay type: cell-based
- condition_details: Homo sapiens; RPMI-8226, 72 h; no unit in table; read-out: Antiproliferative activity IC50
reported_property: IC50

{"compound": "CN(Cc1nc2c(N3CCOCC3)nc(-c3ccc(N)cc3)nc2n1C)c1ncc(C(=O)NO)cn1.CS(=O)(=O)O", "tested_system": "RPMI-8226", "IC50": "2.42 nM"}

[Q] Which IC50 value is on record for Cc1[nH]c2ccccc2c1CCNCc1ccc(/C=C/C(=O)NO)cc1 [panobinostat, reference compound] ?
[A] 9.3 nM

* * *

- assay_explanation: Pharmacokinetics, intravenous
- Type: in vivo, Beagle dogs
- condition_details: both sexes, Beagle, dog, plasma, 0.3 mg/kg, read-out: Vdss
reported_property: Vd (L/kg)
Give bare numbers, in L/kg.

[Q] Consider the compound `CN(Cc1nc2c(N3CCOCC3)nc(-c3ccc(N)cc3)nc2n1C)c1ncc(C(=O)NO)cn1.CS(=O)(=O)O` and give its measured Vd.
[A] 3.69

* * *

- assay_explanation: Plasma protein binding, equilibrium dialysis
- Type: in vitro ADME
- condition_details: Beagle, dog, 0.2 µM, read-out: plasma protein binding rate (converted)
reported_property: fraction unbound at 0.2 µM
Answers are plain numbers.

[Q] Given the entry CN(Cc1nc2c(N3CCOCC3)nc(-c3ccc(N)cc3)nc2n1C)c1ncc(C(=O)NO)cn1.CS(=O)(=O)O [PM] , report its measured fraction unbound at 0.2 µM.
[A] 0.169

* * *

- tested_system: HDAC5 (Homo sapiens)
- Sequence (Q9UQL6 whole entry): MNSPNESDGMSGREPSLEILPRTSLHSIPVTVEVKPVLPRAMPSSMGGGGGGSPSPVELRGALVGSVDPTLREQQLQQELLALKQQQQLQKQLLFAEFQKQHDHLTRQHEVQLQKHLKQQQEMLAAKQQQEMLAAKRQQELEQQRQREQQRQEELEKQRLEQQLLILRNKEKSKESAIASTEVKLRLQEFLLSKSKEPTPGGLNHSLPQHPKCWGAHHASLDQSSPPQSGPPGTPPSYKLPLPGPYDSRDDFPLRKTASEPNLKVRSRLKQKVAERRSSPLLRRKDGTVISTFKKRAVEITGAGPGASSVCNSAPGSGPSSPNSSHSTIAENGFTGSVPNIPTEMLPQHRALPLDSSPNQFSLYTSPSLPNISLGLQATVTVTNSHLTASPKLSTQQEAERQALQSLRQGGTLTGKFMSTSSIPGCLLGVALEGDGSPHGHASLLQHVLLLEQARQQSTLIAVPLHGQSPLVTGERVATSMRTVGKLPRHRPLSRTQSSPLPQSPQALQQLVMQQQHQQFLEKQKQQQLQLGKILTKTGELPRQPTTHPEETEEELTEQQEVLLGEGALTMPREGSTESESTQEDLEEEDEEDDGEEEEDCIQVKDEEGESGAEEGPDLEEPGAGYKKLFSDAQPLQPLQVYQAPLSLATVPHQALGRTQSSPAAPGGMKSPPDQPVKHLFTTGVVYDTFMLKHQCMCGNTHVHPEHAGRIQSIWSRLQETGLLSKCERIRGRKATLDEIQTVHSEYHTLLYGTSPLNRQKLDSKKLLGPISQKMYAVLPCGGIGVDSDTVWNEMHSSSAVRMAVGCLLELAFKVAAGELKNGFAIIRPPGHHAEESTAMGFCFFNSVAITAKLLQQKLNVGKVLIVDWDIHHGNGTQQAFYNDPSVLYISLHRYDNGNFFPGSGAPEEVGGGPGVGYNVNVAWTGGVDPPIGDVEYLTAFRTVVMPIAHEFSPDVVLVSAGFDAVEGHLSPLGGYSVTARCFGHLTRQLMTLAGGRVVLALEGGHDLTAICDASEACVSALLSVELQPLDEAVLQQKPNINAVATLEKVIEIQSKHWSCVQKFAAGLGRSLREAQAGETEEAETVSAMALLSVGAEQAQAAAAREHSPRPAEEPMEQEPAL
reported_property: pIC50
One number for each entry, as −log10 of the molar value.

[Q] Please report the recorded pIC50 for `CN(Cc1nc2c(N3CCOCC3)nc(-c3ccc(N)cc3)nc2n1C)c1ncc(C(=O)NO)cn1.CS(=O)(=O)O` .
[A] 6.37

* * *

- Tested on: Ramos
- assay_explanation: Cell viability CCK8
- Type: cell-based
- condition_details: Homo sapiens, 72 h, no unit in table, read-out: Antiproliferative activity IC50
So I've got a bunch of molecules here, and I need their pIC50 values.
One number for each entry, as −log10 of the molar value.

{"molecule": "Cc1[nH]c2ccccc2c1CCNCc1ccc(/C=C/C(=O)NO)cc1 [panobinostat, reference compound]", "pIC50": 8.30}

Now turn to the next molecule.
[Q] # get_value(readout='pIC50', item= `CN(Cc1nc2c(N3CCOCC3)nc(-c3ccc(N)cc3)nc2n1C)c1ncc(C(=O)NO)cn1.CS(=O)(=O)O` )
[A] 8.91

* * *

- assay_explanation: Pharmacokinetics and tissue distribution in Ighmyc mice
- Type: in vivo
- condition_details: Ighmyc (Eμ-myc), mouse, plasma, iv; single i.v. 5 mg/kg; read-out: plasma drug concentration at 24 hours
reported_property: concentration at 24 h (ng/mL)
One number for each entry, in ng/mL.

[Q] I would be grateful if you could share the reported concentration at 24 h for `CN(Cc1nc2c(N3CCOCC3)nc(-c3ccc(N)cc3)nc2n1C)c1ncc(C(=O)NO)cn1.CS(=O)(=O)O` .
[A] 7.11

* * *

- assay_explanation: Pharmacokinetics in plasma and tumor, HCT116 tumor-bearing mice
- Format: in vivo, nude mice
- condition_details: nude, mouse, plasma, iv, 10 mg/kg, single i.v. 10 mg/kg; read-out: Cmax in plasma
- Experimental: The mean residence time (MRT) was 0.51 ± 0.06 hours in plasma and 39.48 ± 4.74 hours in tumor.
reported_property: Cmax (ng/mL)
One number for each entry, in ng/mL.

[Q] Could you tell me which Cmax is on file for `CN(Cc1nc2c(N3CCOCC3)nc(-c3ccc(N)cc3)nc2n1C)c1ncc(C(=O)NO)cn1.CS(=O)(=O)O` ?
[A] 442

* * *

- assay_explanation: Plasma protein binding, equilibrium dialysis
- Type: in vitro ADME
- condition_details: Sprague-Dawley, rat, 10 µM, read-out: plasma protein binding rate (converted)
reported_property: fraction unbound at 10 µM

[Q] If you can, please state the reported fraction unbound at 10 µM value of `CN(Cc1nc2c(N3CCOCC3)nc(-c3ccc(N)cc3)nc2n1C)c1ncc(C(=O)NO)cn1.CS(=O)(=O)O` .
[A] 0.045

* * *

- assay_explanation: Pharmacokinetics and tissue distribution in Ighmyc mice
- Assay type: in vivo
- condition_details: Ighmyc (Eμ-myc), mouse, plasma, iv; single i.v. 5 mg/kg; read-out: plasma AUC(0-48h)
reported_property: AUC(0-t)

[Q] What does the record list as AUC(0-t) for `CN(Cc1nc2c(N3CCOCC3)nc(-c3ccc(N)cc3)nc2n1C)c1ncc(C(=O)NO)cn1.CS(=O)(=O)O` ?
[A] 875 ng·h/mL

* * *

- Tested on: SUDHL-4
- assay_explanation: Cell viability CCK8
- Format: cell-based
- condition_details: Homo sapiens, SU-DHL-4; SUDHL-4, 72 h; no unit in table; read-out: Antiproliferative activity IC50
reported_property: pIC50
Give bare numbers, as −log10 of the molar value.

{"compound": "Cc1[nH]c2ccccc2c1CCNCc1ccc(/C=C/C(=O)NO)cc1 [panobinostat, reference compound]", "tested_system": "SUDHL-4", "pIC50": 8.17}

[Q] Which pIC50 value belongs to CN(Cc1nc2c(N3CCOCC3)nc(-c3ccc(N)cc3)nc2n1C)c1ncc(C(=O)NO)cn1.CS(=O)(=O)O [PM] ?
[A] 9.14

* * *

- System: RPMI-8226R
- assay_explanation: Cell viability CCK8
- Assay type: cell-based
- condition_details: Homo sapiens, 72 h, no unit in table, read-out: Antiproliferative activity IC50
reported_property: pIC50
Give bare numbers, as −log10 of the molar value.

{"compound": "Cc1[nH]c2ccccc2c1CCNCc1ccc(/C=C/C(=O)NO)cc1 [panobinostat, reference compound]", "recorded_value": 8.25}

Field: next compound
[Q] I would be grateful if you could share the reported pIC50 for `CN(Cc1nc2c(N3CCOCC3)nc(-c3ccc(N)cc3)nc2n1C)c1ncc(C(=O)NO)cn1.CS(=O)(=O)O` .
[A] 8.69

* * *

- tested_system: HDAC1 (Homo sapiens)
- Sequence (Q13547 whole entry): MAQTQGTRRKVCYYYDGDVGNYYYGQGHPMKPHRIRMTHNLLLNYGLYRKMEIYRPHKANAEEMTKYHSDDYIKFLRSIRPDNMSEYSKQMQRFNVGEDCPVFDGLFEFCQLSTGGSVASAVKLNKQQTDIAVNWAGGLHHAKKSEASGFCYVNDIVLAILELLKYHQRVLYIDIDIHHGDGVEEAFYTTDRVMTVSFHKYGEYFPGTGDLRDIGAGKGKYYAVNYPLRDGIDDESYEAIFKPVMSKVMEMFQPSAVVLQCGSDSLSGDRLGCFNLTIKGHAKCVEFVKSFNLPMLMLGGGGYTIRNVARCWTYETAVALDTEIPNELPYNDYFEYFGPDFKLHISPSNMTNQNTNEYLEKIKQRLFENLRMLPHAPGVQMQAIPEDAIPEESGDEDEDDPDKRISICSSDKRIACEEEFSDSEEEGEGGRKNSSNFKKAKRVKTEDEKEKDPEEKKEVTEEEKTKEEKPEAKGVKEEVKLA
reported_property: pIC50
One number for each entry, as −log10 of the molar value.

[Q] Tell me the measured pIC50 of `CN(Cc1nc2c(N3CCOCC3)nc(-c3ccc(N)cc3)nc2n1C)c1ncc(C(=O)NO)cn1.CS(=O)(=O)O` , please.
[A] 9.09
